# condition parameters: acidic group
Lab note: compare pKa against 10. Equal or greater, write yes. Smaller, write no.

Does the compound O=C([O-])c1ccc(O)c([N+](=O)[O-])c1 have recorded pKa that is 10 or more? no

Is reported pKa greater than or equal to 10 here: CCCCC1(CC)C(=O)[N-]C(=S)NC1=O yes

pKa >= 10 for CC(C)(C)OO ? yes

Next:
Decide: is the reported value of pKa for Nc1nc(C(F)(F)F)c2[nH]cnc2n1 equal to or greater than 10? no

Answer whether pKa of O=C([O-])CCC(=O)C=C=Cc1ccccc1 is greater than or equal to 10. yes

hey, is pKa for this one >= 10? O=C(O)C1(O)CCCC1 no

// inclusive: pKa at least 10? input: CCCCCC/C=N/O yes

* * *

# condition parameters: basic group
Give true when the value for pKa is at least 9. Give false when it is less.

Hi team, for NC/C=C\C(=O)[O-] , is the recorded pKa at or above 9? true

Has CC(O)CN(CC(C)O)C(C)C (stereo unspecified) a recorded pKa greater than or equal to 9? true

Form field: pKa at least 9? Entry: CN(C)c1ccc(N=O)cc1 false

Entry O=P(C1CCCCC1)(C1CCCCC1)C1CCCCC1 : is its pKa no less than 9? false

More entries:
Item CC(C)(N)c1ccccc1 with pKa of 9 or above? true

Reported pKa at or above 9? COc1ccc(CCN)cc1OC true

* * *

# condition parameters: basic group
Readings of pKa for the listed compounds

Param item = Cn1c(N)nc2nc[nH]c2c1=O ; retrieve measured pKa. 3.2

Name the reported pKa value associated with the compound Nc1ccc(O)cc1 5.54

Which value of pKa has been reported for Cc1ccccc1C(=NCCCCN(C)C)c1ccccc1C in the records? 8.8

Fill in the blank: the reported pKa of CC[NH+](CC)CCNc1nc(C)nc(Nc2ccc(Cl)cc2)n1 is ____. 4.02

Which pKa is listed for NCc1cccc(O)c1O ? 8.3

***
Requested read-out: pKa. Entry: C#CC(C)(C)NC(C)(C)CC 9

Given the entry COC(=O)N1c2ccccc2[C@@]23CCN4CC=C[C@]5(CC[C@]12[C@](O)(C(=O)OC)C5O)[C@H]43 (some centres not stated) , report its measured pKa. 5.63

Query (compound): COc1ccc(Cl)c2cccnc12 ; field requested: pKa 4.13

Give the measured pKa of NNCCOc1ccccc1 . 6.8

Recorded pKa of O=[PH]([O-])C(NCc1cccnc1)c1ccccc1O (configuration not stated) , please. 8.05

# pKa lookup, item CCOc1ccccc1N 4.51

* * *

# condition parameters: basic group
quantity name: pKa
Respond numerically, and do not add a unit to the figure.

Field request: pKa | item: NCCCCCC(=O)[O-] 10.8

Give its pKa value. Item: COC(=O)[C@@H](N)Cc1c[nH]cn1 7.33

Could you share which pKa value was measured for Cc1ccnc2ccccc12 ? 5.51

Look up pKa: c1ccc2c(c1)CCCN2 4.96

Need pKa of CC(=O)c1cccc(N)c1 , thanks. 3.61

Let's switch to this molecule now.
Give its pKa value. Item: CCCN1CC(O[Si](C)(C)C)C1 8.89

* * *

# condition parameters: acidic group
quantity name: pKa
Answer with a bare number; do not write a unit.

Some solved entries appear below for comparison.
// pKa lookup, key: [NH3+][C@H]1CCCC[C@@H]1C(=O)O 3.59

Item under review: CC(=O)[n+]1ccc(C)cc1 . Reported pKa? 6.15

Bench note: what pKa did OCC(S)C[S-] (centres undefined) show? 10.6

Entry under review: Nc1ccc(S(=O)(=O)Nc2cnc(Cl)nc2)cc1 . Reported pKa? 5.8

Fill blank: measured pKa of the compound [NH3+]C(CCc1ccc([N+](=O)[O-])cc1)C(=O)O (centres undefined) is ____. 3.05

GET /values?readout=pKa&item= CC(=N\[O-])/C(C)=N/O 11.9

Field request: pKa | item: Cc1ccc(S(=O)(=O)N(CC[NH2+]CC(=O)O)CC(=O)O)cc1 1.99

What value of measured pKa is listed for O=CC1CCCC1=O (centres undefined) ? 5.83

I'd like to know its pKa. The compound in question is Oc1ccc(/N=N/c2ccncc2)cc1 7.73

For the compound shown here, NC(=O)NOCCC([NH3+])C(=O)O (centres undefined) , give the reported pKa. 2.5

***
Find the recorded pKa belonging to O=C(O)CSc1ccccc1 and report it. 3.52

// pKa lookup, key: Nc1n[nH]c(N)c1/N=N/c1ccc(O)cc1 7.81

// pKa lookup, key: O=C(CC(=O)c1ccccc1)Nc1cccc([N+](=O)[O-])c1 9.54

Quick one: pKa of CCc1c(O)ccc(C(C)C)c1C ? 10.8

Which pKa is listed for COc1cc2c(O)cc(C)[nH+]c2c2c(C)c(C)oc12 ? 2.91

* * *

# condition parameters: acidic group
# pKa values compiled below
Kindly provide the number alone.

Dear colleague, I am looking for the recorded pKa of the following molecule: C[C@H](C1CC1C(=O)O)[C@H]1CC[C@H]2[C@@H]3[C@@H](O)C[C@@H]4C[C@H](O)CC[C@]4(C)[C@H]3CC[C@]12C (stereo partly drawn) 5.01

Looking for the measured pKa of C/C(N=O)=N\O , can you help? 5.8

Find the recorded pKa belonging to O=C(O)CCP and report it. 4.23

Requested field: pKa. Item: CC(=O)Nc1ccc(S)cc1 6.08

# input molecule: Cc1ccc(S(=O)O)cc1 ; wanted: its pKa 1.82

What pKa value was documented for this molecule, OCC(Cl)Cl ? 13.2

Could you share which pKa value was measured for CC1=NCCc2c1[nH]c1ccc([N+](=O)[O-])cc21 ? 12.6

Query: pKa; subject: CN(C)c1ccc(C(=S)Nc2ccccc2)cc1 11.2

Consider the molecule shown here: NC(Cc1c[nH]c(=S)[nH]1)C(=O)[O-] (stereo not drawn) What is its recorded pKa? 11.4

Quick one: pKa for O=C(c1ccccc1)c1ccccc1O ? 9.3

Further cases:
What value of measured pKa is listed for Cc1ccc(C(N)=S)cc1 ? 12.8

Requested read-out: pKa. Entry: O=c1cc(-c2ccccc2O)oc2ccccc12 8.85

Entry under review: Nc1c2ccccc2[nH+]c2ccc(O)cc12 . Reported pKa? 7.71

Given the entry CCCCCCCCCCc1c(-c2ccccc2)nn(-c2ccccc2)c1O , report its measured pKa. 6.7

What does the record list as pKa for Cc1cccc(SCC(=O)O)c1 ? 3.52

May I ask what pKa has been recorded for Cc1cc(C(=O)O)cc(C)[n+]1O ? -0.01

Need pKa, item C=C(C)C(C)(C(N)=O)C(=O)O (stereo not drawn) 3.42

Request the reported pKa associated with Nc1ccc(S(=O)(=O)Nc2ncco2)cc1 6.5

* * *

# condition parameters: basic group
quantity name: pKa

// lookup pKa for CC[C@]1(O)C[C@H](C)N[C@@H]2CCCC[C@H]21 10.1

Find the recorded pKa belonging to Cn1cncc1C[C@H](N)C(=O)[O-] and report it. 8.72

Look up pKa: c1ccc(Oc2ccccn2)cc1 2.35

Query: pKa; subject: COc1cc2c(cc1OC)[C@]13CCN4CC5=CCO[C@@H]6CC(=O)N2[C@@H]1[C@@H]6[C@@H]5C[C@@H]43 5.86

---
Entry Cc1cc(C)c2ccccc2n1 has what pKa? 5.11

Recorded pKa of CCCCCCCCCCN(CCO)CC(O)CC (stereo unspecified) , please. 7.2

* * *

# condition parameters: basic group
Kindly return 1 if reported pKa is no lower than 8; return 0 if it is lower.

Is it the case that CCOC(=O)Cc1nc2ccccc2[nH]1 has pKa reaching or exceeding 8? 0

In plain terms: is recorded pKa at least 8 for Cc1ccc(NCCS)cc1 ? 0

* * *

# condition parameters: acidic group
Assign classes using reported pKa values and the ranges L: < 4; M: ≥ 4 and < 9; H: ≥ 9, please.

Record N#Cc1ccc(O[C@H]2O[C@@H](C(=O)O)[C@H](O)[C@@H](O)[C@@H]2O)cc1 — which class? L

Please report the category associated with O=C(O)c1ccc([N+](=O)[O-])cc1O , nothing else. L

Which pKa band matches CC/N=C(\N=[N+]=[N-])c1ccccc1O ? H

Assign a category based on measured pKa for CCCC(=O)OO and give only the class name. M

Each compound maps to one class by pKa. Which class for COc1cccc(S(N)(=O)=O)c1 ? H

// return the class label for CC(CC(=O)O)C(N)=O (stereo not given) M

Next:
Classify this compound: CCCSCC(=O)O L

Could you place O=C(O)C1(C(=O)O)CC1 in its proper category? Many thanks. L
